# Tested on: COR-L105;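 further: cell growth inhibition determined with a viability assay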
# ASSAY_PROCEDURE: cells
# Assay type: functional, cell-based, Homo sapiens
# TEST_CONTEXT: cor-l105
# Description: SANGER: Inhibition of human COR-L105 cell growth in a cell viability assay.
METRIC_NAME: IC50 (µM)

- SEQUENCE_TEXT: "CISPLATIN"
  METRIC_NAME: "IC50"
  RESULT_UNITS: "µM"
  OBSERVED: 22.7

---

pIC50 for assorted sequences
# System: OMC-1;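 further: growth inhibition of the OMC-1 cell line, measured by a cell viability assay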
# ASSAY_PROCEDURE: cells
# Format: functional, cell-based, Homo sapiens
# TEST_CONTEXT: omc-1
# Description: SANGER: Inhibition of human OMC-1 cell growth in a cell viability assay.
pIC50: −log10 of the molar value.

- SEQUENCE_TEXT: "CISPLATIN"
  TARGET: "OMC-1"
  pIC50: 4.90
- SEQUENCE_TEXT: "BLEOMYCIN"
  TARGET: "OMC-1"
  pIC50: 4.92

---

# System: OVCAR-3;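 further: growth inhibition of human OVCAR-3 cells, determined by a cell viability assay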
# ASSAY_PROCEDURE: cells
# Type: functional, cell-based, Homo sapiens
# TEST_CONTEXT: Homo sapiens, OVCAR-3
# Description: SANGER: Inhibition of human OVCAR-3 cell growth in a cell viability assay.
pIC50: −log10 of the molar value.

- MOL_SMILES: "COc1cc2c(Nc3ccc(NC(=O)c4ccccc4)cc3)ncnc2cc1OCCCN1CCOCC1"
  pIC50: "< 5.40"
- MOL_SMILES: "COc1cccc2c1C(=O)c1c(O)c3c(c(O)c1C2=O)C[C@@](O)(C(=O)CO)C[C@@H]3O[C@H]1C[C@H](N)[C@H](O)[C@H](C)O1"
  pIC50: 6.33
- MOL_SMILES: "C=C(c1ccc(C(=O)O)cc1)c1cc2c(cc1C)C(C)(C)CCC2(C)C"
  pIC50: "< 5.10"

---

# System: LOUCY;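 further: growth inhibition of human LOUCY cells, read out with a cell viability assay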
# ASSAY_PROCEDURE: cells
# Assay type: functional, cell-based, Homo sapiens
# TEST_CONTEXT: Homo sapiens, LOUCY
# Description: SANGER: Inhibition of human LOUCY cell growth in a cell viability assay.
log10 of IC50 for assorted compounds
METRIC_NAME: log10 of IC50 (log10 of the value in nM)

- COMPOUND: "OCCCNc1cc(-c2ccnc(Nc3cccc(Cl)c3)n2)ccn1"
  log10 of IC50: 1.79
- COMPOUND: "COc1cc2ncn(-c3cc(OCc4ccccc4C(F)(F)F)c(C(N)=O)s3)c2cc1OC [GW843682X]"
  log10 of IC50: 1.20
- COMPOUND: "COc1cccc2c1C(=O)c1c(O)c3c(c(O)c1C2=O)C[C@@](O)(C(=O)CO)C[C@@H]3O[C@H]1C[C@H](N)[C@H](O)[C@H](C)O1"
  log10 of IC50: 1.33
- COMPOUND: "N[C@@H](CSC(c1ccccc1)(c1ccccc1)c1ccccc1)C(=O)O"
  log10 of IC50: 2.68
- COMPOUND: "N#Cc1c(O)c2c(-c3ccc(-c4ccccc4O)cc3)csc2[nH]c1=O"
  log10 of IC50: 1.98

---

# Test system: C2BBe1;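 further: growth inhibition of C2BBe1 cells, read out through a viability assay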
# ASSAY_PROCEDURE: cells
# Assay type: functional, cell-based, Homo sapiens
# TEST_CONTEXT: Homo sapiens, C2BBe1
# Description: SANGER: Inhibition of human C2BBe1 cell growth in a cell viability assay.
Structures can show the parent of a compound that is named as a salt.
METRIC_NAME: IC50

- COMPOUND: "CCC/C=C/C=C/C(=O)O[C@H]1/C(=C/C(=O)OC)C[C@H]2C[C@H]([C@@H](C)O)OC(=O)C[C@H](O)C[C@@H]3C[C@H](OC(C)=O)C(C)(C)[C@](O)(C[C@@H]4C/C(=C/C(=O)OC)C[C@H](/C=C/C(C)(C)[C@]1(O)O2)O4)O3"
  TARGET: "C2BBe1"
  METRIC_NAME: "IC50"
  OBSERVED: "> 0.008 µM"
- COMPOUND: "Nc1cccc2c1CN(C1CCC(=O)NC1=O)C2=O (stereo not drawn) [LENALIDOMIDE]"
  TARGET: "C2BBe1"
  METRIC_NAME: "IC50"
  OBSERVED: "> 5 µM"
- COMPOUND: "CN(C)C(=N)NC(=N)N"
  TARGET: "C2BBe1"
  METRIC_NAME: "IC50"
  OBSERVED: "11800 µM"
- COMPOUND: "COc1cc(-c2nn([C@H]3CC[C@H](N4CCN(C(C)=O)CC4)CC3)c3ncnc(N)c23)ccc1NC(=O)c1cc2ccccc2n1C"
  TARGET: "C2BBe1"
  METRIC_NAME: "IC50"
  OBSERVED: "0.757 µM"
- COMPOUND: "Nc1ccn([C@@H]2O[C@H](CO)[C@@H](O)C2(F)F)c(=O)n1"
  TARGET: "C2BBe1"
  METRIC_NAME: "IC50"
  OBSERVED: "> 1.02 µM"
- COMPOUND: "Oc1ccc2ccccc2c1SSc1c(O)ccc2ccccc12"
  TARGET: "C2BBe1"
  METRIC_NAME: "IC50"
  OBSERVED: "> 32 µM"
- COMPOUND: "COC1=CC(c2cc3ccccc3[nH]2)=N/C1=C\\c1[nH]c(C)cc1C [OBATOCLAX MESYLATE]"
  TARGET: "C2BBe1"
  METRIC_NAME: "IC50"
  OBSERVED: "2.42 µM"
- COMPOUND: "COc1cc(N2CCN(C)CC2)ccc1Nc1ncc2c(n1)N(C)c1ccccc1C(=O)N2C"
  TARGET: "C2BBe1"
  METRIC_NAME: "IC50"
  OBSERVED: "> 8 µM"
